# Test system: NCI-H460 lung
# test description: NCI-60 one-dose screen, 48 h
# recorded conditions: 10 µM unless noted
The panel holds about 83,000 compounds, 20% with a hit somewhere; the sample as a whole holds those more often. Activity calls are given as the source filed them. Rule for the calls: active = growth percent below 10; inactive = the rest.
// classify into yes (1) = active, no (0) = inactive

**Query** Any idea what this test logged for Cc1nnc(-c2cc3c(ccc4ccccc43)oc2=O)c2cn(-c3ccc(Cl)cc3)nc12 ?
**Result** no (0)

**Query** Any idea what this test logged for COC(=O)C(C)[C@H]1CC[C@@H]2[C@]1(C)CC=C1[C@]23C=C[C@]2(C[C@@H](OC(C)=O)CC[C@]12C)C(C(=O)OC)C3C(=O)OC (stereo partly specified) ?
**Result** no (0)

**Query** Any idea what this test logged for CC(=O)/C(=C\c1c(-c2ccccc2)[nH]c2ccccc12)S(=O)(=O)c1ccccc1 ?
**Result** yes (1)

**Query** Any idea what this test logged for O=C(Nc1ccc(-n2cc(-c3ccncc3)c(-c3ccc(Cl)c(O)c3)n2)cc1)c1cc(C(F)(F)F)cc(C(F)(F)F)c1 ?
**Result** no (0)

**Query** Any idea what this test logged for O=C(/C=C/c1cccc(O)c1)c1cccc(-n2cc(-c3ccc(Cl)cc3)[nH]c2=O)c1 ?
**Result** yes (1)

**Query** Any idea what this test logged for C[C@@H](c1ccc2c(c1)[nH]c1ccc(Cl)cc12)c1nc2ccc(Cl)cc2[nH]1 ?
**Result** no (0)

**Query** Any idea what this test logged for NNC(=O)CNc1ccc2ccccc2c1 ?
**Result** no (0)

**Query** Any idea what this test logged for COc1ccc(C(=O)CN2C(=O)NC(c3ccccc3)(c3ccccc3)C2=O)cc1 ?
**Result** no (0)

**Query** Any idea what this test logged for COCC(=O)NNc1[nH]c(-c2ccc(OC)cc2)cc1C#N ?
**Result** no (0)

**Query** Any idea what this test logged for O=C1C(=O)c2ccccc2C(O)=C1CCCc1ccc(C2CCCC2)cc1 ?
**Result** yes (1)

**Query** Any idea what this test logged for COc1ccc2sc(-n3nc4nc5n(c(=O)c4c3N)-c3ccccc3Sc3ccccc3-5)nc2c1 ?
**Result** no (0)

**Query** Any idea what this test logged for CC1(C)Oc2cc3oc(=O)ccc3cc2C[C@@H]1OCCOS(=O)(=O)c1ccc(C#N)cc1 ?
**Result** no (0)

**Query** Any idea what this test logged for CCOC(=O)c1cc(C(=O)c2ccc(Br)cc2)n2cc(C)cc(C)c12 ?
**Result** no (0)

**Query** Any idea what this test logged for CC1=NN(c2cccc(Cl)c2)C(=O)/C1=C\c1cn(-c2nc(N3CCOCC3)nc(N3CCOCC3)n2)c2ccccc12 ?
**Result** no (0)

**Query** Any idea what this test logged for [2H]c1nc(=Nc2cc(NC(=O)C=C)c(N(C)CCN(C)C)cc2OC)[nH]c(-c2cn(C([2H])([2H])[2H])c3ccccc23)c1[2H] ?
**Result** no (0)

**Query** Any idea what this test logged for CCCCCCC(C)N(CC(C)(C)O)C(=O)c1ccc([N+](=O)[O-])cc1 (stereo unspecified) ?
**Result** no (0)

**Query** Any idea what this test logged for O=S(=O)(O)c1ccc2c(c1)Sc1cc(S(=O)(=O)O)ccc1O2 ?
**Result** no (0)

**Query** Any idea what this test logged for COc1cc(OC)c(NC(=O)n2ncc3cc(Nc4ncnc5ccccc45)ccc32)cc1Cl ?
**Result** no (0)

**Query** Any idea what this test logged for COc1cc(-c2nn(-c3ccc(NC(=O)Nc4cc(C(F)(F)F)cc(C(F)(F)F)c4)cc3)cc2-c2ccncc2)ccc1Cl ?
**Result** yes (1)

**Query** Any idea what this test logged for O=S(=O)(O)CCI ?
**Result** no (0)

**Query** Any idea what this test logged for COc1ccc2oc(=O)cc(CN3C(=O)S/C(=C\c4ccc(Cl)cc4)C3=O)c2c1 ?
**Result** no (0)

**Query** Any idea what this test logged for COc1cc(CCNc2cnc3cc(N)cc(N)c3n2)cc(OC)c1 ?
**Result** no (0)

**Query** Any idea what this test logged for CCCCCSc1ccc2nc(NC(=O)OCC)sc2c1 ?
**Result** no (0)

**Query** Any idea what this test logged for C=C(NC(=O)[C@H](C(C)C)N(C)c1cccc2[nH]ccc12)C(=O)OC ?
**Result** no (0)

**Query** Any idea what this test logged for CC[C@H](Nc1ncnc2nc[nH]c12)c1nc2cccc(NCc3ccc(C(=O)NO)nc3)c2c(=O)n1-c1ccccc1 ?
**Result** no (0)

**Query** Any idea what this test logged for CCOC(=O)c1cc(-c2ccc(OC)cc2)[nH]c1NNC(=O)CCOC ?
**Result** no (0)
